Just for reference, ChEMBL document CHEMBL4138227 is where these values come from.

assay: Elimination half life in Sprague-Dawley rat at 1 mg/kg, po; format: ADME, organism-based; conditions: in vivo, read-out: beta t1/2 (converted)
readout kind: half-life (h)

[[record]]
chemical_string = "CCOc1ccc(Cc2cc([C@@H]3O[C@H](CNOC)[C@@H](O)[C@H](O)[C@H]3O)ccc2Cl)cc1"
readout_kind = "half-life"
reported_result = 3

[[record]]
chemical_string = "CCOc1ccc(Cc2cc([C@@H]3O[C@H](/C=N/OC)[C@@H](O)[C@H](O)[C@H]3O)ccc2Cl)cc1"
readout_kind = "half-life"
reported_result = 2.5


---

biological target: Sodium/glucose cotransporter 2 (Homo sapiens, UniProt P31639); experiment: Inhibition of human SGLT2 expressed in CHO cells assessed as reduction in [14C]AMG uptake after 1 hr by microbeta counting method; assay type: cell-based
Sequence (P31639 whole entry): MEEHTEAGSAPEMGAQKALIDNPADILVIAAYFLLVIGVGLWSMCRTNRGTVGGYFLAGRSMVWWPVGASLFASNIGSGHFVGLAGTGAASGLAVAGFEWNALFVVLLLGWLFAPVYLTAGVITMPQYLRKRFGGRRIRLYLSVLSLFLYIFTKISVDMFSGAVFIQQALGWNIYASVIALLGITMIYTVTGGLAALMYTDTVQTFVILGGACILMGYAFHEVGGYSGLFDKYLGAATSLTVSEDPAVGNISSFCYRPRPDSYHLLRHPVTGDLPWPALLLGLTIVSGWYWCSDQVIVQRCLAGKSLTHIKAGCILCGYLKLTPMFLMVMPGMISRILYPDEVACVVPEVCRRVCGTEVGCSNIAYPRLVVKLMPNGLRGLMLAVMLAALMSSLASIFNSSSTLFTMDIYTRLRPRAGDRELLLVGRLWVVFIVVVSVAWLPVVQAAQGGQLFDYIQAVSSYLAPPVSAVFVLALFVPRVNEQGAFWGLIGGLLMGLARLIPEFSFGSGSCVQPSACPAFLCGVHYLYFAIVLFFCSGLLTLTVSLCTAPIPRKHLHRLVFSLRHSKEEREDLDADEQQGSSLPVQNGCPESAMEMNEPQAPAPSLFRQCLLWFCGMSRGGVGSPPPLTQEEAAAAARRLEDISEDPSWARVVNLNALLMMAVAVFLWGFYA
readout kind: EC50 (nM)

# annotated cases, reported EC50 shown
[[record]]
chemical_string = "CCO/N=C/[C@H]1O[C@@H](c2ccc(Cl)c(Cc3ccc(OCC)cc3)c2)[C@H](O)[C@@H](O)[C@@H]1O"
unit_descriptor = "nM"
reported_result = 335

[[record]]
chemical_string = "C#CCO/N=C/[C@H]1O[C@@H](c2ccc(Cl)c(Cc3ccc(OCC)cc3)c2)[C@H](O)[C@@H](O)[C@@H]1O"
unit_descriptor = "nM"
reported_result = 431

[[record]]
chemical_string = "CCOc1ccc(Cc2cc([C@@H]3O[C@H](/C=N/NC(=O)c4ccsc4)[C@@H](O)[C@H](O)[C@H]3O)ccc2Cl)cc1"
unit_descriptor = "nM"
reported_result = 208

[[record]]
chemical_string = "CCOc1ccc(Cc2cc([C@@H]3O[C@H](/C=N/OCc4ccccc4)[C@@H](O)[C@H](O)[C@H]3O)ccc2Cl)cc1"
unit_descriptor = "nM"
reported_result = 2250

[[record]]
chemical_string = "CCOc1ccc(Cc2cc([C@@H]3O[C@H](/C=N/NC(C)=O)[C@@H](O)[C@H](O)[C@H]3O)ccc2Cl)cc1"
unit_descriptor = "nM"
reported_result = 395

[[record]]
chemical_string = "CCOc1ccc(Cc2cc([C@@H]3O[C@H](/C=N/NCCO)[C@@H](O)[C@H](O)[C@H]3O)ccc2Cl)cc1"
unit_descriptor = "nM"
reported_result = 88

[[record]]
chemical_string = "CCOc1ccc(Cc2cc([C@@H]3O[C@H](CNO)[C@@H](O)[C@H](O)[C@H]3O)ccc2Cl)cc1"
unit_descriptor = "nM"
reported_result = 95

[[record]]
chemical_string = "CCOc1ccc(Cc2cc([C@@H]3O[C@H](/C=N/OCCO)[C@@H](O)[C@H](O)[C@H]3O)ccc2Cl)cc1"
unit_descriptor = "nM"
reported_result = 194

[[record]]
chemical_string = "CCOc1ccc(Cc2cc([C@@H]3O[C@H](/C=N/NC(=O)c4ccco4)[C@@H](O)[C@H](O)[C@H]3O)ccc2Cl)cc1"
unit_descriptor = "nM"
reported_result = 301

[[record]]
chemical_string = "CCOc1ccc(Cc2cc([C@@H]3O[C@H](/C=N/NC(=O)c4cccs4)[C@@H](O)[C@H](O)[C@H]3O)ccc2Cl)cc1"
unit_descriptor = "nM"
reported_result = 175


[1] CCOc1ccc(Cc2cc([C@@H]3O[C@H](/C=N/Nc4nc5ccccc5s4)[C@@H](O)[C@H](O)[C@H]3O)ccc2Cl)cc1
[2] CCOc1ccc(Cc2cc([C@@H]3O[C@H](/C=N/OCCOC)[C@@H](O)[C@H](O)[C@H]3O)ccc2Cl)cc1
// compare measured EC50, left 1 , right 2 , return larger Output the label that corresponds to your choice.
2
(2: 678 nM, 1: 204 nM)

[P] CCOc1ccc(Cc2cc([C@@H]3O[C@H](CNNc4ccc([N+](=O)[O-])cc4)[C@@H](O)[C@H](O)[C@H]3O)ccc2Cl)cc1
[Q] CCOc1ccc(Cc2cc([C@@H]3O[C@H](CNOC)[C@@H](O)[C@H](O)[C@H]3O)ccc2Cl)cc1
// compare measured EC50, left P , right Q , return larger Output the label that corresponds to your choice.
P
(P: 211 nM, Q: 63 nM)
